Molecular target: T1, Human OX40 protein (hOX40-His) (human, UniProt P43489 29-214)
T1 construct: Soluble analyte in the SPR assay; also called His-tagged human OX40; not shown: His tag
T1 sequence: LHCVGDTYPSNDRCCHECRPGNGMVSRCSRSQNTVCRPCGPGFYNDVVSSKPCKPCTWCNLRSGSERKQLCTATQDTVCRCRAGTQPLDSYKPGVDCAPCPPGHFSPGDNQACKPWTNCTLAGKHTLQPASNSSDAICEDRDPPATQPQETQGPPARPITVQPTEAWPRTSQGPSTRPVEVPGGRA
Assay: SPR, Biacore T200, antibody captured on Protein A chip, hOX40-His as analyte, 1:1 Langmuir fit
readout_kind: pKd
Scale explanation: pKd corresponds to minus log10 of a concentration expressed in moles per litre.

Field: example entries. Status: answers known.
9H3-H2K1-IgG1 (antibody, V domains shown, Humanized, with human IgG1 constant domains (CL, CH1, CH2, CH3); also called 9H3 humanized antibody H2K1) VH: QVQLVESGGGVVQPGRSLRISCAVSGFSLTSYGVLWVRQAPGKGLEWVAVIWSGGSTDYNAAFISRLTISRDNSKSTVYFQMNSLRAEDTAVYYCAREEFGYWGQGTLVTVSS VL: DIQMTQSPSSLSASVGDRVTITCRASQDINNYLNWYQQKPGGAVKLLIYYTSRLHTGVPSRFSGSGSGTDFTLTISSLQPEDIATYYCQQTNTLPWTFGGGTKLEVKR
8.47
9H3-H2K3-IgG1 (antibody, V domains shown, Humanized, with human IgG1 constant domains; also called 9H3 humanized antibody H2K3) VH: QVQLVESGGGVVQPGRSLRISCAVSGFSLTSYGVLWVRQAPGKGLEWVAVIWSGGSTDYNAAFISRLTISRDNSKSTVYFQMNSLRAEDTAVYYCAREEFGYWGQGTLVTVSS VL: DIQMTQSPSSLSASVGDRVTITCRASQDINNYLNWYQQKPGGAVKLLIYYTSRLHSGVPSRFSGSGSGTDYTLTISSLQPEDIATYFCQQTNTLPWTFGGGTKLEIKR
8.81

For the next question, use this binder.
Task: Data request, read-out pKd, for 9A4-mHvKv-IgG1 (antibody, V domains shown, Chimeric: mouse 9A4 variable domains with human IgG1 constant domains; also called 9A4 chimeric antibody) VH: EVQLQQFGAELVKPGASVKISCKASGYTFTDYNMDWVKQSHGKSLEWIGDINPNYDSTSYNQKFKGKATLTVDKSSSTAYMELRSLTSEDTAVYYCARGGYGNYVDYFDYWGQGTTLTVSS VL: NIVMTQSPKSMSMSVGERVTLSCKASENVVTYVSWYQQKPEQSPKLLIYGASNRYTGVPDRFTGSGSATDFTLTISSVQAEDLADYHCGQSYSYPYTFGGGTKLEIK
Output: 7.26

Numbers sourced from patent US20210206866A1.
